# chargeab. (chargeability by tribogeneration) per record follows
recorded conditions: 15% relative humidity and 23° C.
attribute measured: chargeab. (chargeability by tribogeneration)

>  <compound>
CCCCC1=NC2(CCCC2)C(=O)N1Cc1ccc(-c2ccccc2-c2nnn[nH]2)cc1 [Example 7]

>  <value measured>
−26.5 ± 6 10^−9 As/g

$$$$
>  <compound>
CCCCC1=NC2(CCCC2)C(=O)N1Cc1ccc(-c2ccccc2-c2nnn[nH]2)cc1 [Example 6]

>  <value measured>
−27.9 ± 2.8 10^−9 As/g

$$$$
>  <compound>
CCCCC1=NC2(CCCC2)C(=O)N1Cc1ccc(-c2ccccc2-c2nnn[nH]2)cc1 [Example 4]

>  <value measured>
−27.5 ± 5.6 10^−9 As/g

$$$$
>  <compound>
CCCCC1=NC2(CCCC2)C(=O)N1Cc1ccc(-c2ccccc2-c2nnn[nH]2)cc1 [Example 2]

>  <value measured>
−32 ± 4.6 10^−9 As/g

$$$$
>  <compound>
CCCCC1=NC2(CCCC2)C(=O)N1Cc1ccc(-c2ccccc2-c2nnn[nH]2)cc1 [Example 1]

>  <value measured>
−33.7 ± 15 10^−9 As/g

$$$$
>  <compound>
CCCCC1=NC2(CCCC2)C(=O)N1Cc1ccc(-c2ccccc2-c2nnn[nH]2)cc1 [Example 3]

>  <value measured>
−45.8 ± 4.9 10^−9 As/g

$$$$
>  <compound>
CCCCC1=NC2(CCCC2)C(=O)N1Cc1ccc(-c2ccccc2-c2nnn[nH]2)cc1 [Example 5]

>  <value measured>
−17.1 ± 2.9 10^−9 As/g

$$$$
